Reference source for all entries: patent US6150390A

target: LTB-4 receptor (Homo sapiens, UniProt Q15722); construct: Final neutrophil was dispersed to 3×10^7 cell/ml in HBSS media and used for measuring the antagonizing action for LTB-4 receptor; endogenous in cells; host or cells: neutrophils from human whole blood; assay: Antagonizing action for LTB-4 receptor ([3H]-LTB-4 binding to human neutrophils); settings: 100 nM; inhibition of selective [3H]-LTB-4 binding, human neutrophils; read-out: Degree of inhibition (%) 100 nM
Sequence (Q15722 whole entry): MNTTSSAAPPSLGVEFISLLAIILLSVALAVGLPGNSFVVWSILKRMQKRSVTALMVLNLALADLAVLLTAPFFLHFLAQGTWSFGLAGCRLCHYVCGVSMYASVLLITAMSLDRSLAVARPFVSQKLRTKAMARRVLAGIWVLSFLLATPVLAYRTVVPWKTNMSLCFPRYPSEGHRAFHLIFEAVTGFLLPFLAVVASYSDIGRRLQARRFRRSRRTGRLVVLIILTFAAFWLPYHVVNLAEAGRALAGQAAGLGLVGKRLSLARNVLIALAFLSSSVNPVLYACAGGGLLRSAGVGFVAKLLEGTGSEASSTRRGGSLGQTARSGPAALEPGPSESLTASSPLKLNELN
READOUT_LABEL: inhibition at 0.1 µM (%)
Value expressed in %; do not type the unit.

Example entries begin here.
{"MOLECULE": "COc1cc(C(=O)N(C(C)C)C(C)C)ccc1OCCCCOc1ccc2c(N)noc2c1 [HS-1141]", "REPORTED_RESULT": 95}
{"MOLECULE": "COc1cc(C(=O)N(C(C)C)C(C)C)ccc1OCCCOc1ccc2c(N)noc2c1 [HS-1151]", "REPORTED_RESULT": 37}
{"MOLECULE": "COc1cc(C(=O)N(C(C)C)C(C)C)ccc1OCCCCCOc1ccc2c(N)noc2c1 [HS-1132]", "REPORTED_RESULT": 10}

Item: COc1cc(C(=O)N(C(C)C)C(C)C)ccc1OCCCCCOc1ccc(C(=N)N)cc1 [CGS-25019C, reference compound] | inhibition at 0.1 µM: 68

----------
molecular target: LTB-4 receptor (Homo sapiens, UniProt Q15722); construct: Final neutrophil was dispersed to 3×10^7 cell/ml in HBSS media and used for measuring the antagonizing action for LTB-4 receptor; endogenous in cells; host or cells: neutrophils from human whole blood; assay: Antagonizing action for LTB-4 receptor ([3H]-LTB-4 binding to human neutrophils); details: 1 μM; inhibition of selective [3H]-LTB-4 binding, human neutrophils; read-out: Degree of inhibition (%) 1 μM
READOUT_LABEL: inhibition at 1 µM (%)
Number in %, nothing else.

# annotated cases, reported inhibition at 1 µM shown
{"MOLECULE": "COc1cc(C(=O)N(C(C)C)C(C)C)ccc1OCCCOc1ccc2c(N)noc2c1 [HS-1151]", "TARGET_DESC": "LTB-4 receptor (Homo sapiens, UniProt Q15722)", "inhibition at 1 µM / %": 92}
{"MOLECULE": "COc1cc(C(=O)N(C(C)C)C(C)C)ccc1OCCCCCOc1ccc(C(=N)N)cc1 [CGS-25019C, reference compound]", "TARGET_DESC": "LTB-4 receptor (Homo sapiens, UniProt Q15722)", "inhibition at 1 µM / %": 97}
{"MOLECULE": "COc1cc(C(=O)N(C(C)C)C(C)C)ccc1OCCCCOc1ccc2c(N)noc2c1 [HS-1141]", "TARGET_DESC": "LTB-4 receptor (Homo sapiens, UniProt Q15722)", "inhibition at 1 µM / %": 99}

Then there is this molecule:
inhibition at 1 µM measured on COc1cc(C(=O)N(C(C)C)C(C)C)ccc1OCCCCCOc1ccc2c(N)noc2c1 [HS-1132] = 90
